Data origin, for the record: paper PMC9482650

- target: T1, DVL3, Q92997
- T1 sequence (Q92997 244-331, limits assumed, looked up): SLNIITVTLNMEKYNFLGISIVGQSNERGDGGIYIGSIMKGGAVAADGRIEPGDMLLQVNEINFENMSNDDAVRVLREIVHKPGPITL
- protocol text: holdup assay
- Design: key: below the threshold = too weak to quantify, mostly under pKd 3.1 to 4
- condition summary: plain residues with an end cap or a label only (N-terminal biotin on a linker: ado-ado)

| binder | pKd |
| --- | --- |
| VCMGDHWFDV [PRKN, O60260] | 3.59 |
| NISARRFTLC [FAM167B, Q9BTA0] | below the threshold |
| LPPPESESKV [KCNJ9, Q92806] | below the threshold |
| GDSSRKEYFI [GYPC, P04921] | 4.34 |
| IKLETKKTKL [SLC15A2, Q16348] | below the threshold |
| QQGLLPHSSC [TYRO3, Q06418] | below the threshold |
| THREVKFTSL [CD46, P15529] | below the threshold |
| SGDGKTSVWI [GJC1, P36383] | 4.23 |
| PALKNGQYWV [CSPG4, Q6UVK1] | 4.2 |
| AKADAQESRL [PLCB2, Q00722] | below the threshold |
| SKQFDKNAYV [CLDN10, P78369] | below the threshold |
| AHGSTRDQSI [KCNB1, Q14721] | 3.66 |
| KPDKQEEFYA [SDC3, O75056] | below the threshold |
| DLLGGGSDSI [TNRC6B, Q9UPQ9] | below the threshold |
| GTMFLRETSL [GUCY1A2, P33402] | below the threshold |
| QKNKDREYYV [NRXN3, Q9HDB5] | 4.02 |
